This listing pairs molecules with measured pIC50.
- assayed_target: IMP-1 (Serratia marcescens)
- Sequence (P52699 19-246, looked up, species assumed): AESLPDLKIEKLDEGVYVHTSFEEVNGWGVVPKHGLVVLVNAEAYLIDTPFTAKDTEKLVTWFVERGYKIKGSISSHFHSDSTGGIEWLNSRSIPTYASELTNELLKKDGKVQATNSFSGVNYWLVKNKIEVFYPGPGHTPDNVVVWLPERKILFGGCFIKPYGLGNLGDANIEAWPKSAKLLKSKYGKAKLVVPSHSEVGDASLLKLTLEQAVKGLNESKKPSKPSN
- assay_summary: Enzyme activity: determination of IC50, fluorescence assay with CCF2-FA substrate
- Assay type: biochemical
- recorded_conditions: enzyme 2 pM, CCF2-FA 1.25 μM, 2 hours at 25° C.; read-out: IMP1 IC50
Please express pIC50 as -log10 of the molar concentration.

molecule | reading
CCC[C@H](C(=O)O)[C@H](Cc1ccc(S(=O)(=O)C2CC2)nc1)c1nnn[nH]1 [Example 86] | 5.48
CC(C)C[C@H](C(=O)O)[C@H](Cc1ccc(OCCN)nc1)c1nnn[nH]1 [Example 135] | 5.80
CC(C)C[C@H](C(=O)O)[C@H](Cc1ccc(C2CCNCC2)cn1)c1nnn[nH]1 [Example 101] | 5.70

Proceeding to the next molecule to report its pIC50.
input: Quick check: pIC50 of CCC[C@H](C(=O)O)[C@H](Cc1cnn2ncccc12)c1nnn[nH]1 [Example 156] ?
output: 5.27
